# system.tested: Cyclin-dependent kinase 4/cyclin D1 (Homo sapiens)
# test.description: Inhibition of human recombinant CDK4/Cyclin D1 using fluoresceinyl-Ahx-Pro-Val-Lys-Arg-Arg-Leu-(3ClPhe)-Gly tracer peptide as substrate after 45 mins by fluorescent polarization binding assay
Peptide text beside a SMILES is read from it. * marks the point of attachment. X14 = Cc1nc(C(=O)*)nn1-c1cc(Cl)cc(Cl)c1; X2 = Cc1cc(C(=O)*)nn1-c1cccc(Cl)c1; X1 = Cc1cccc(-n2nc(C(=O)*)nc2C)c1
Measured pIC50 accompanies every entry in the list below.
# pIC50 = -log10(concentration in molar units)

Entry CC[C@H](C)[C@H](NC(=O)[C@H](CC(C)C)NC(=O)[C@H](CCCNC(=N)N)NC(=O)c1nc(C)n(-c2cc(Cl)cc(Cl)c2)n1)C(=O)N[C@@H](Cc1ccccc1)C(N)=O (X14-RLIF-NH2) has what pIC50?
4.56

Entry CC[C@H](C)[C@H](NC(=O)[C@H](CC(C)C)NC(=O)[C@H](CCCNC(=N)N)NC(=O)c1cc(C)n(-c2cccc(Cl)c2)n1)C(=O)N[C@@H](Cc1ccccc1)C(N)=O (X2-RLIF-NH2) : reported pIC50 = ?
4.15

Next:
Dear colleague, I am looking for the recorded pIC50 of the following compound: CC[C@H](C)[C@H](NC(=O)[C@H](CC(C)C)NC(=O)[C@H](CCCNC(=N)N)NC(=O)c1nc(C)n(-c2cccc(C)c2)n1)C(=O)N[C@@H](Cc1ccccc1)C(N)=O (X1-RLIF-NH2)
4.29

Suppose we examine the compound `Cc1nc(C(=O)N[C@@H](CCCNC(=N)N)C(=O)N[C@@H](CC(C)C)C(=O)NCc2cc(Oc3cccc(Cl)c3)ccn2)nn1-c1cc(Cl)cc(Cl)c1` ; what pIC50 value has been reported?
3.92

* * *

Listing of recorded pIC50 by entry.
# system.tested: Cyclin-dependent kinase 2/cyclin A (Homo sapiens, UniProt P24941)
# test.description: Inhibition of human recombinant CDK2/Cyclin A2 using fluoresceinyl-Ahx-Pro-Val-Lys-Arg-Arg-Leu-Phe-Gly tracer peptide as substrate after 45 mins by fluorescent polarization binding assay
Peptide text beside a SMILES is read from it. * marks the point of attachment. X17 = Cc1cc(C(=O)*)nn1-c1cc(Cl)cc(Cl)c1; X16 = Cc1nc(C(=O)*)nn1-c1cccc(Cl)c1; X7 = Cc1cc(C(=O)*)nn1-c1cccc(F)c1; X10 = Cc1cc(C(=O)*)nn1-c1ccccc1
In plain terms, pIC50 is the concentration in mol/L turned into minus its base-10 logarithm.

Look up pIC50: CC[C@H](C)[C@H](NC(=O)[C@H](CC(C)C)NC(=O)[C@H](CCCNC(=N)N)NC(=O)c1cc(C)n(-c2ccccc2)n1)C(=O)N[C@@H](Cc1ccccc1)C(N)=O (X10-RLIF-NH2)
4.39

Field request: pIC50 | item: CC[C@H](C)[C@H](NC(=O)[C@H](CC(C)C)NC(=O)[C@H](CCCNC(=N)N)NC(=O)c1nc(C)n(-c2cccc(Cl)c2)n1)C(=O)N[C@@H](Cc1ccccc1)C(N)=O (X16-RLIF-NH2)
5.24

Further cases:
Requested field: pIC50. Item: `Cc1nc(C(=O)N[C@@H](CCCNC(=N)N)C(=O)N[C@@H](CC(C)C)C(=O)NCc2cc(Oc3ccc(Cl)cc3)ccn2)nn1-c1ccc(Cl)cc1`
4.26

Item `Cc1nc(C(=O)N[C@@H](CCCNC(=N)N)C(=O)N[C@@H](CC(C)C)C(=O)NCc2cc(Oc3cccc(F)c3)ccn2)nn1-c1ccc(Cl)cc1` has what recorded pIC50?
4.27

Which pIC50 is listed for CC[C@H](C)[C@H](NC(=O)[C@H](CC(C)C)NC(=O)[C@H](CCCNC(=N)N)NC(=O)c1cc(C)n(-c2cc(Cl)cc(Cl)c2)n1)C(=O)N[C@@H](Cc1ccccc1)C(N)=O (X17-RLIF-NH2) ?
4.66

Would you kindly share the measured pIC50 for `Cc1nc(C(=O)N[C@@H](CCCNC(=N)N)C(=O)N[C@@H](CC(C)C)C(=O)NCc2cccc(Oc3ccccc3)c2)nn1-c1ccc(Cl)cc1` ?
3.97

Query (compound): CC[C@H](C)[C@H](NC(=O)[C@H](CC(C)C)NC(=O)[C@H](CCCNC(=N)N)NC(=O)c1cc(C)n(-c2cccc(F)c2)n1)C(=O)N[C@@H](Cc1ccccc1)C(N)=O (X7-RLIF-NH2) ; field requested: pIC50
4.53

* * *

# system.tested: Cyclin-dependent kinase 4/cyclin D1 (Homo sapiens, UniProt P11802)
# Sequence (P11802 whole entry): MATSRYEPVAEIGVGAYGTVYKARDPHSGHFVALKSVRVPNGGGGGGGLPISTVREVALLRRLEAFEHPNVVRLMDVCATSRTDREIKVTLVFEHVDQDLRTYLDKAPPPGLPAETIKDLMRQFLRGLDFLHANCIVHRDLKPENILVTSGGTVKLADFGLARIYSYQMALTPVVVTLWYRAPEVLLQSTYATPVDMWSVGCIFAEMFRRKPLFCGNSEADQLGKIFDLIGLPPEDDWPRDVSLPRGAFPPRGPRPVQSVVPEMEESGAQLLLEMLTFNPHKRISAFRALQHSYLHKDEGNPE
# Sequence (P24385 whole entry, further chain): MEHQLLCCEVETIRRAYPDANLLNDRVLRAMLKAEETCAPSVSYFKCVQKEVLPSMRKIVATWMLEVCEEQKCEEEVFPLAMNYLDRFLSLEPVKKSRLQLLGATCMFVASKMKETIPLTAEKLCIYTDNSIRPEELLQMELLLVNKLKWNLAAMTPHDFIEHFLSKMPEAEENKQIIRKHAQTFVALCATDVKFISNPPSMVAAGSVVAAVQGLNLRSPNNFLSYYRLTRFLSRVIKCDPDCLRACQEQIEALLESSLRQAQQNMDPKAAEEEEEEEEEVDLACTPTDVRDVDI
# test.description: Inhibition of human recombinant CDK4/Cyclin D1 using fluoresceinyl-Ahx-Pro-Val-Lys-Arg-Arg-Leu-(3ClPhe)-Gly tracer peptide as substrate after 45 mins by fluorescent polarization binding assay
Peptide text beside a SMILES is read from it. * marks the point of attachment. X12 = Cc1nc(C(=O)*)nn1-c1ccc(Cl)cc1; X10 = Cc1cc(C(=O)*)nn1-c1ccccc1
measured.attribute: pIC50
Scale: pIC50 equals -log10([C]), with [C] in mol/L.

What does the record list as pIC50 for CC[C@H](C)[C@H](NC(=O)[C@H](CC(C)C)NC(=O)[C@H](CCCNC(=N)N)NC(=O)c1nc(C)n(-c2ccc(Cl)cc2)n1)C(=O)N[C@@H](Cc1ccccc1)C(N)=O (X12-RLIF-NH2) ?
4.92

Let's switch to this compound now.
Please look up its pIC50: CC[C@H](C)[C@H](NC(=O)[C@H](CC(C)C)NC(=O)[C@H](CCCNC(=N)N)NC(=O)c1cc(C)n(-c2ccccc2)n1)C(=O)N[C@@H](Cc1ccccc1)C(N)=O (X10-RLIF-NH2)
4.27

* * *

# system.tested: Cyclin-dependent kinase 2/cyclin A (Homo sapiens)
# test.description: Inhibition of human recombinant CDK2/Cyclin A2 using fluoresceinyl-Ahx-Pro-Val-Lys-Arg-Arg-Leu-Phe-Gly tracer peptide as substrate after 45 mins by fluorescent polarization binding assay
Peptide text beside a SMILES is read from it. * marks the point of attachment. X14 = Cc1nc(C(=O)*)nn1-c1cc(Cl)cc(Cl)c1; X13 = O=C(c1c[nH]c(-c2cccc(F)c2)n1)*; X2 = Cc1cc(C(=O)*)nn1-c1cccc(Cl)c1; X1 = Cc1cccc(-n2nc(C(=O)*)nc2C)c1
measured.attribute: pIC50
When answering, recall that pIC50 equals minus log10 of the concentration in mol/L, and write that number alone.

# example entries with known answers
// pIC50 lookup, key: `Cc1ccccc1Oc1ccnc(CNC(=O)[C@H](CC(C)C)NC(=O)[C@H](CCCNC(=N)N)NC(=O)c2nc(C)n(-c3ccc(Cl)cc3)n2)c1`
4.22

// lookup pIC50 for CC[C@H](C)[C@H](NC(=O)[C@H](CC(C)C)NC(=O)[C@H](CCCNC(=N)N)NC(=O)c1nc(C)n(-c2cc(Cl)cc(Cl)c2)n1)C(=O)N[C@@H](Cc1ccccc1)C(N)=O (X14-RLIF-NH2)
5.40

Which pIC50 value is on record for CC[C@H](C)[C@H](NC(=O)[C@H](CC(C)C)NC(=O)[C@H](CCCNC(=N)N)NC(=O)c1cc(C)n(-c2cccc(Cl)c2)n1)C(=O)N[C@@H](Cc1ccccc1)C(N)=O (X2-RLIF-NH2) ?
4.92

What value of pIC50 has been recorded for this entry: `Cc1nc(C(=O)N[C@@H](CCCNC(=N)N)C(=O)N[C@@H](CC(C)C)C(=O)NCc2cc(Oc3ccc(F)cc3)ccn2)nn1-c1ccc(Cl)cc1`
4.74

Consider the molecule CC[C@H](C)[C@H](NC(=O)[C@H](CC(C)C)NC(=O)[C@H](CCCNC(=N)N)NC(=O)c1nc(C)n(-c2cccc(C)c2)n1)C(=O)N[C@@H](Cc1ccccc1)C(N)=O (X1-RLIF-NH2) and give its measured pIC50.
4.86

# next molecule below
Need pIC50 of CC[C@H](C)[C@H](NC(=O)[C@H](CC(C)C)NC(=O)[C@H](CCCNC(=N)N)NC(=O)c1c[nH]c(-c2cccc(F)c2)n1)C(=O)N[C@@H](Cc1ccccc1)C(N)=O (X13-RLIF-NH2) , thanks.
4.46

* * *

# system.tested: Cyclin-dependent kinase 2/cyclin A (Homo sapiens, UniProt P24941)
# test.description: Inhibition of human recombinant CDK2/Cyclin A2 using fluoresceinyl-Ahx-Pro-Val-Lys-Arg-Arg-Leu-Phe-Gly tracer peptide as substrate after 45 mins by fluorescent polarization binding assay
Peptide text beside a SMILES is read from it. * marks the point of attachment. X11 = Cc1cc(C(=O)*)nn1-c1ccc(Cl)cc1; X12 = Cc1nc(C(=O)*)nn1-c1ccc(Cl)cc1; X6 = COc1cccc(-n2nc(C(=O)*)cc2C)c1
Catalogue of IC50 values
Enter your answer as a number in µM; do not include the unit.

Recorded IC50 for CC[C@H](C)[C@H](NC(=O)[C@H](CC(C)C)NC(=O)[C@H](CCCNC(=N)N)NC(=O)c1cc(C)n(-c2cccc(OC)c2)n1)C(=O)N[C@@H](Cc1ccccc1)C(N)=O (X6-RLIF-NH2) , please?
64.1

Recorded IC50 of `Cc1nc(C(=O)N[C@@H](CCCNC(=N)N)C(=O)N[C@@H](CC(C)C)C(=O)NCc2cc(Oc3cccc(Cl)c3)ccn2)nn1-c1cc(Cl)cc(Cl)c1` , please.
61

Need IC50 of CC[C@H](C)[C@H](NC(=O)[C@H](CC(C)C)NC(=O)[C@H](CCCNC(=N)N)NC(=O)c1cc(C)n(-c2ccc(Cl)cc2)n1)C(=O)N[C@@H](Cc1ccccc1)C(N)=O (X11-RLIF-NH2) , thanks.
33.7

# ---- query compound ----
Would you kindly share the measured IC50 for CC[C@H](C)[C@H](NC(=O)[C@H](CC(C)C)NC(=O)[C@H](CCCNC(=N)N)NC(=O)c1nc(C)n(-c2ccc(Cl)cc2)n1)C(=O)N[C@@H](Cc1ccccc1)C(N)=O (X12-RLIF-NH2) ?
11.5
